Recorded values, source patent US11964971B2.

- Tested on: MDR1-MDCK cell monolayers
- Run Conditions: dog, MDCK-MDR1, 120 min, 5 μM, pH 7.4
The label is label 1 for MDCK-MDR1: % Recov A-B (%) below 50% and label 0 for MDCK-MDR1: % Recov A-B (%) equal to or exceeding 50%.

Inquiry: Is MDCK-MDR1: % Recov A-B (%) of CN(c1cnc(-c2cc3oc(C(=O)N4CCC4)cc3cc2O)cn1)[C@@H]1CC2CC[C@H](N2)[C@@H]1F (single isomer, unassigned) [Compound 20E1] strictly below 50%?
Reply text: label 0

Inquiry: Is MDCK-MDR1: % Recov A-B (%) of Cn1ccc(-c2ccc(-c3cnc(N(C4CC4)[C@H]4C[C@@H]5CCC(N5)[C@H]4F)cn3)c(O)c2)cc1=O (single isomer, unassigned) [Compound 53E2] strictly below 50%?
Reply text: label 0

Inquiry: Is MDCK-MDR1: % Recov A-B (%) of Cn1cc(-c2ccc(-c3cnc(N(C4CC4)[C@@H]4CC5CC[C@H](N5)[C@@H]4F)cn3)c(O)c2)cn1 (single isomer, unassigned) [Compound 49E1] strictly below 50%?
Reply text: label 1

Inquiry: Is MDCK-MDR1: % Recov A-B (%) of C[C@@]12CC[C@@](C)(N1)[C@@H](F)[C@@H](Oc1cnc(-c3ccc(-c4cn[nH]c4)cc3O)cn1)C2 [Compound 2E1] strictly below 50%?
Reply text: label 0

Inquiry: Is MDCK-MDR1: % Recov A-B (%) of COc1cc(-c2ccc(-c3cnc(N(C)[C@H]4C[C@@H]5CCC(N5)[C@H]4F)cn3)c(O)c2)cc(F)n1 (single isomer, unassigned) [Compound 44E2] strictly below 50%?
Reply text: label 1

Inquiry: Is MDCK-MDR1: % Recov A-B (%) of COc1cc(-c2ccc(-c3cnc(N(C)[C@@H]4C[C@@]5(C)CCC[C@](C)(N5)[C@@H]4F)cn3)c(O)c2)cnn1 [Compound 24E1] strictly below 50%?
Reply text: label 1
